# tested-on: c-Met (cytoplasmic domain) (Homo sapiens)
# Construct: 10 ng/mL c-Met (cytoplasmic domain, Invitrogen Corporation #PV3143); purchased Invitrogen Corporation PV3143
# Sequence (P08581 956-1390 limits assumed): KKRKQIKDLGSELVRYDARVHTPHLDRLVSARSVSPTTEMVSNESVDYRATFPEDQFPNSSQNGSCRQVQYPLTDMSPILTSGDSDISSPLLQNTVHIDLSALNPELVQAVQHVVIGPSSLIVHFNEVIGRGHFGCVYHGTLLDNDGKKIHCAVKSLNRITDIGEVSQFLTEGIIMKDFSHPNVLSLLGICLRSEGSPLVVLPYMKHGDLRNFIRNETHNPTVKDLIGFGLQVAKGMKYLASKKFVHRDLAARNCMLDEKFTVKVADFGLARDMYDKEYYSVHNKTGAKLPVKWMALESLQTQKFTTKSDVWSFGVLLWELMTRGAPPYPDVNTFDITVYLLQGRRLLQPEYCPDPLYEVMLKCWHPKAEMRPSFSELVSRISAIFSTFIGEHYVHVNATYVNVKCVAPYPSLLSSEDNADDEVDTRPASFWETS
# method-description: c-Met Kinase Assay (same methods as for ALK, with modifications)
# Assay type: biochemical
# assay-context: c-Met kinase inhibition, 1 μM ATP; read-out: cMet Activity
pIC50: −log10 of the molar value.
value-type: pIC50

Sample records with pIC50:
CCOC(=O)N1CC(=O)Nc2cc(Nc3ncc(Cl)c(Nc4c(F)cccc4C(=O)NC)n3)ccc2C1; 6.00 to 7.00
CNC(=O)c1sc(Cl)c(C)c1Nc1nc(Nc2ccc3c(c2)CCOC(=O)N3C)ncc1Cl; > 7.00
CNC(=O)c1cccc(F)c1Nc1nc(Nc2ccc3c(c2)NC(=O)CN(CCOC)C3)ncc1Cl; > 7.00
CC(C)N1C(=O)CCC(C)(C)c2ccc(Nc3ncc(Cl)c(N[C@H]4[C@@H](C(N)=O)[C@@H]5C=C[C@H]4C5)n3)cc21; 5.00 to 6.00

Query string: I would be grateful if you could share the reported pIC50 for CN([C@@H]1CCCC[C@H]1Nc1nc(Nc2ccc3c(c2)CCC(N2CCOCC2)CC3)ncc1Cl)S(C)(=O)=O (mixture of isomers) .
Result string: 5.00 to 6.00

Query string: I would be grateful if you could share the reported pIC50 for COC(=O)c1sc(-c2ccccc2)c(C)c1Nc1nc(Nc2ccc3c(c2)CCOC(=O)N3C)ncc1Cl .
Result string: < 5.00

Query string: I would be grateful if you could share the reported pIC50 for CNC(=O)c1ccccc1Nc1nc(Nc2ccc3c(c2)-n2ccnc2CCC3)ncc1Cl .
Result string: > 7.00
